- SYSTEM: T1, human-CD40-monomer protein (human, UniProt P25942 21-193, limits assumed)
- T1 construct: Soluble monomer generated in house, used as SPR analyte; also called hCD40; hCD40-monomer
- T1 sequence (P25942 21-193 limits assumed): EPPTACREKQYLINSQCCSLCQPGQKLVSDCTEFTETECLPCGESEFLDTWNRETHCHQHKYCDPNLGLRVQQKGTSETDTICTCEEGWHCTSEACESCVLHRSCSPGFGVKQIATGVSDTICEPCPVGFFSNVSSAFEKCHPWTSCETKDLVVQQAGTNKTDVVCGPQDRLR
- PROCEDURE SUMMARY: SPR, Ab captured on protein A, hCD40 monomer 500 and 50 nM, 1:1 fit; supernatant
For each entry below, report its Kd value.
Value expressed in nM; do not type the unit.

(Q) Which value of Kd has been reported for Y12XX-hz11 (antibody, human IgG1, kappa, V domains shown, Humanized, IgG1-P238K; supernatant sample) VH: QVQLVQSGAEVKKPGSSVKVSCKASGYAFTSYWMHWVRQRPGQGLEWIGQINPSNGRSQYNEKFKTRVTITADKSTSTAYMELSSLRSEDTAVYYCARWGLQPFAYWGQGTLVTVSS VL: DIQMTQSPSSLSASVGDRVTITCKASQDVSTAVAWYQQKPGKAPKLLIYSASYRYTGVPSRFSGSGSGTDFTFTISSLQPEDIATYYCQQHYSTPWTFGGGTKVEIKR in the records?
(A) 5

(Q) Param item: Y12XX-hz30 (antibody, human IgG1, kappa, V domains shown, Humanized, IgG1-P238K; supernatant sample) VH: QVQLVQSGAEVKKPGSSVKVSCKASGYAFTSYWMHWVRQRPGQGLEWMGFINPTTGYSEYNQKFKDRVTITADKSTSTAYMELSSLRSEDTAVYYCARWGLPPFAYWGQGTLVTVSS VL: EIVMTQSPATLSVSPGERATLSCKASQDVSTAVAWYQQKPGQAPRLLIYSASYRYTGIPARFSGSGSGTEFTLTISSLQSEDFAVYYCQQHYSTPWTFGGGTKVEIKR
(A) 0.018

(Q) Param item: Y12XX-hz4 (antibody, human IgG1, kappa, V domains shown, Humanized, IgG1-P238K; supernatant sample) VH: QVQLVQSGAEVKKPGSSVKVSCKASGYAFTSYWMHWVRQAPGQGLEWMGYINPTTGYSAYNQKFKDKATLTADKSTSTAYMELSSLRSEDTAVYYCARWDPRPFAYWGQGTLVTVSS VL: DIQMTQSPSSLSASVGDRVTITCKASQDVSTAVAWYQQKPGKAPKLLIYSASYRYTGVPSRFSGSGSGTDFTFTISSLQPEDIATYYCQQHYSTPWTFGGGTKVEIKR
(A) 4.7

(Q) Param item: Y12XX-hz22 (antibody, human IgG1, kappa, V domains shown, Humanized, IgG1-P238K; supernatant sample) VH: QVQLVQSGAEVKKPGSSVKVSCKASGYAFTSYWMHWVRQAPGQGLEWMGYINPTTGYSAYNQKFKDKATLTADKSTSTAYMELSSLRSEDTAVYYCARWDARPFAYWGQGTLVTVSS VL: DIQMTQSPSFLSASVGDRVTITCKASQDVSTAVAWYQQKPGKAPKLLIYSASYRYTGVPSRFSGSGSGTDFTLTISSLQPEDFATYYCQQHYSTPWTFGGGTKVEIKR
(A) 210
